Assay: Neurotoxicity against mice in rotarod test
Type: toxicity, organism-based
Settings: mouse, in vivo
Readout name: TD50

*Q* Recorded TD50 of NC(=O)Cn1c(-c2ccc(Cl)cc2)nc2cccnc21 , please.
*A* > 1000 mg/kg

* * *

Entries and their pIC50 values follow.
Molecular target: GABA-A receptor; anion channel
Assay: Displacement of [3H]-diazepam from GABA-A benzodiazepine receptor of rat cerebral cortex membrane
Type: tissue-based
Notebook: values listed as pIC50 are -log10 of the concentration (mol/L).

O=C(O)CNC(=O)Cn1c(-c2ccc(Cl)cc2)nc2cccnc21 ... 5.15
CCCNC(=O)Cn1c(-c2ccc(Cl)cc2)nc2cccnc21 ... 5.90
CN(C)C(=O)Cn1c(-c2ccc(Br)cc2)nc2cccnc21 ... 5.52

Okay, next one:
*Q* Recorded pIC50 of O=C(Cn1c(-c2ccc(Cl)cc2)nc2cccnc21)Nc1cccnc1 , please.
*A* 6.64

* * *

Biological target: GABA-A receptor; anion channel
Assay: Displacement of [3H]-diazepam from GABA-A benzodiazepine receptor of rat cerebral cortex membrane
Type: tissue-based
Entries and their IC50 values follow.
Hi! Could you send only the number? It should be in µM, unit omitted.

CN(C)C(=O)Cn1c(-c2ccc(C(F)(F)F)cc2)nc2cccnc21 ... 3.7

*Q* Enter reported IC50 observed with GABA-A receptor; anion channel for CN(C)C(=O)Cn1c(-c2cccc(Cl)c2)nc2cccnc21
*A* 2.4

*Q* Another compound to look at: CCOC(=O)CNC(=O)Cn1c(-c2ccc(Cl)cc2)nc2cccnc21
*A* 9.1

*Q* Another compound to look at: CN(C)C(=O)Cn1c(-c2ccccn2)nc2cccnc21
*A* 2.6

* * *

Biological target: GABA-A receptor; anion channel
Experiment: Displacement of [3H]flunitrazepam from GABA-A benzodiazepine receptor of rat cerebral cortex membrane
Assay type: tissue-based
Entries and their IC50 values follow.
Hi! Could you send only the number? It should be in µM, unit omitted.

Cc1ccc2nc(-c3ccc(Cl)cc3)n(CC(=O)N(C)C)c2n1 ... 0.88
CC(=O)NCCNC(=O)Cn1c(-c2ccc(Cl)cc2)nc2cccnc21 ... 7.2
CN(C)C(=O)Cn1c(-c2ccc(Br)s2)nc2cccnc21 ... 2.5

*Q* Recorded IC50 of CN(C)C(=O)Cn1c(-c2ccc(Cl)cc2)nc2ccc(O)nc21 , please.
*A* 5.2

*Q* Another compound to look at: CCCCN(CCCC)C(=O)Cn1c(-c2ccc(Cl)cc2)nc2cccnc21
*A* 0.9

*Q* Another compound to look at: CNC(=O)Cn1c(-c2ccc(Cl)cc2)nc2cccnc21
*A* 1.6

*Q* Another compound to look at: O=C(Cn1c(-c2ccc(Cl)cc2)nc2cccnc21)N1CCCCC1
*A* 2.7

*Q* Another compound to look at: CCCN(CCC)C(=O)Cn1c(-c2ccc(Cl)cc2)nc2cccnc21
*A* 0.38

*Q* Another compound to look at: CN(C)C(=O)CCn1c(-c2ccc(Cl)cc2)nc2cccnc21
*A* 9.3

*Q* Another compound to look at: COc1ccc(-c2nc3cccnc3n2CC(=O)N(C)C)cc1
*A* 8.5

*Q* Another compound to look at: CCCN(CCC)C(=O)Cn1c(-c2ccc(Cl)cc2)nc2ccccc21
*A* 2.7

* * *

Biological target: GABA-A receptor; anion channel
Assay: Displacement of [3H]flunitrazepam from GABA-A benzodiazepine receptor of rat cerebral cortex membrane
Assay type: tissue-based
Entries and their pIC50 values follow.
Notebook: values listed as pIC50 are -log10 of the concentration (mol/L).

Examples with their reported pIC50 follow.
NC(=O)Cn1c(-c2ccc(Cl)cc2)nc2cccnc21 ... 5.10
O=C(Cn1c(-c2ccc(Cl)cc2)nc2cccnc21)N1CCOCC1 ... 5.39
Cc1ccc(-c2nc3ccc(Cl)nc3n2CC(=O)N(C)C)cc1 ... 6.82
CN(C)C(=O)Cn1c(-c2ccc(Br)o2)nc2cccnc21 ... 6.70

Okay, next one:
*Q* Recorded pIC50 of CN(C)C(=O)Cn1c(-c2ccc(Cl)cc2)nc2cccnc21 , please.
*A* 5.44

* * *

Organism: Mus musculus
Assay: Anticonvulsant activity against pentylenetetrazole-induced clonic seizures in mice
Type: functional
Details: Mus musculus; read-out: ED50
Friendly reminder: ED50 below 20 mg/kg is true, at or above is false.

Reference set, count: 3
NC(=O)Cn1c(-c2ccc(C(F)(F)F)cc2)nc2cccnc21 ... true
NC(=O)Cn1c(-c2ccc(Br)cc2)nc2cccnc21 ... true
CNC1=Nc2ccc(Cl)cc2C(c2ccccc2)=[N+]([O-])C1 [CHLORDIAZEPOXIDE] ... true

*Q* Say whether its ED50 is strictly beneath 20 mg/kg. Entry: CN(C)C(=O)CCn1c(-c2ccc(Cl)cc2)nc2cccnc21
*A* false

*Q* Another compound to look at: CCCN(CCC)C(=O)Cn1c(-c2ccc(Cl)cc2)nc2cccnc21
*A* true

* * *

Species on record: Mus musculus
Assay: Anticonvulsant activity against pentylenetetrazole-induced clonic seizures in mice
Format: functional
Conditions: Mus musculus; read-out: ED50
Friendly reminder: ED50 below 40 mg/kg is fulfilled, at or above is not fulfilled.

Cc1ccc2nc(-c3ccc(Cl)cc3)n(CC(=O)N(C)C)c2n1 ... fulfilled
CCOC(=O)CCCNC(=O)Cn1c(-c2ccc(Cl)cc2)nc2cccnc21 ... not fulfilled
CN(C)C(=O)Cn1c(-c2ccc(C(F)(F)F)cc2)nc2cccnc21 ... fulfilled
CN(C)CCN(C)C(=O)Cn1c(-c2ccc(Cl)cc2)nc2cccnc21 ... not fulfilled

*Q* Say whether its ED50 is strictly beneath 40 mg/kg. Entry: CN(C)C(=O)Cn1c(-c2ccc(Cl)cc2)nc2ccc[n+]([O-])c21
*A* fulfilled

*Q* Another compound to look at: CN1C(=O)CN=C(c2ccccc2)c2cc(Cl)ccc21
*A* fulfilled

*Q* Another compound to look at: CN(C)C(=O)Cn1c(-c2ccc([N+](=O)[O-])cc2)nc2cccnc21
*A* not fulfilled

*Q* Another compound to look at: C[C@@H](C(=O)N(C)C)n1c(-c2ccc(Cl)cc2)nc2cccnc21
*A* fulfilled

*Q* Another compound to look at: O=C(Cn1c(-c2ccc(Cl)cc2)nc2cccnc21)Nc1cccnc1
*A* not fulfilled

*Q* Another compound to look at: CN(C)C(=O)Cn1c(-c2ccco2)nc2cccnc21
*A* not fulfilled

*Q* Another compound to look at: CN(C)CCCNC(=O)Cn1c(-c2ccc(Cl)cc2)nc2cccnc21
*A* not fulfilled

* * *

Entries and their ED50 values follow.
Species on record: Mus musculus
Assay: Anticonvulsant activity against pentylenetetrazole-induced clonic seizures in mice
Type: functional
Details: Mus musculus; read-out: ED50
Hi! Could you send only the number? It should be in mg/kg, unit omitted.

Examples with their reported ED50 follow.
CN(C)CCNC(=O)Cn1c(-c2ccc(Cl)cc2)nc2cccnc21 ... 62
COc1ccc(-c2nc3cccnc3n2CC(=O)N(C)C)cc1 ... 39.5

*Q* Recorded ED50 of O=C(Cn1c(-c2ccc(Cl)cc2)nc2cccnc21)N1CCCC1 , please.
*A* 17.9

*Q* Another compound to look at: CCCNC(=O)Cn1c(-c2ccc(Cl)cc2)nc2cccnc21
*A* 37.5

*Q* Another compound to look at: NC(=O)Cn1c(-c2ccc(Cl)cc2)nc2ccc[n+]([O-])c21
*A* 52.1

*Q* Another compound to look at: CN(C)C(=O)Cn1c(-c2ccc(F)cc2)nc2cccnc21
*A* 40.5

*Q* Another compound to look at: CNC(=O)Cn1c(-c2ccc(Cl)cc2)nc2cccnc21
*A* 12.5

* * *

Biological target: GABA-A receptor; anion channel
Test: Displacement of [3H]flunitrazepam from GABA-A benzodiazepine receptor of rat cerebral cortex membrane
Type: tissue-based
Entries and their IC50 values follow.

Examples with their reported IC50 follow.
CN(C)C(=O)Cn1c(-c2ccc(Cl)cc2)nc2c(Cl)ccnc21 ... > 10 µM
CN(C)C(=O)Cn1c(-c2ccc(Cl)cc2Cl)nc2cccnc21 ... > 10 µM
CN(C)CCN(C)C(=O)Cn1c(-c2ccc(Cl)cc2)nc2cccnc21 ... > 10 µM

*Q* Enter reported IC50 observed with GABA-A receptor; anion channel for CN(C)C(=O)Cn1c(-c2ccc(Cl)cc2)nc2ccc[n+]([O-])c21
*A* > 10 µM

*Q* Another molecule to look at: CN1CCN(C(=O)Cn2c(-c3ccc(Cl)cc3)nc3cccnc32)CC1
*A* > 10 µM

*Q* Another molecule to look at: CCCN(C)C(=O)Cn1c(-c2ccc(Cl)cc2)nc2cccnc21
*A* 0.68 µM

* * *

Biological target: GABA-A receptor; anion channel
Assay: Displacement of [3H]flunitrazepam from GABA-A benzodiazepine receptor of rat cerebral cortex membrane
Format: tissue-based
Readout name: IC50

CN(C)C(=O)Cn1c(-c2ccsc2)nc2cccnc21 ... > 10 µM
CN(C)C(=O)Cn1c(-c2ccc(Cl)cc2)nc2ccncc21 ... > 10 µM
CN(C)C(=O)Cn1c(Cc2ccc(Cl)cc2)nc2cccnc21 ... > 10 µM
CCOC(=O)CCCNC(=O)Cn1c(-c2ccc(Cl)cc2)nc2cccnc21 ... > 10 µM
CCCN(CCC)C(=O)Cn1c(-c2ccc(Cl)cc2)nc2ncccc21 ... > 10 µM
NC(=O)Cn1c(-c2ccc(Cl)cc2)nc2ncccc21 ... > 10 µM

*Q* Recorded IC50 of NC(=O)Cn1c(-c2ccc(C(F)(F)F)cc2)nc2cccnc21 , please.
*A* > 10 µM
